Cited source for all entries: patent US7160685B2

tested on: HLA A or B Allele; type: cell-based, human; conditions: and subtypes where given
attribute_measured: HLA A or B Allele Specificity

RPHERNGFTVL (listed as Human cytomegalovirus) [SEQ ID NO: 10] ... HLA B7
TPRVTGGGAM (listed as Human cytomegalovirus) [SEQ ID NO: 7] ... HLA B7
